# experiment: qHTS assay for identifying genotoxic compounds that show differential cytotoxicity against isogenic chicken DT40 cell lines with known DNA damage response pathways - wild type cell line (AID 743012); further: nearly all actives have a fitted effect of over 60% in size
# studyConditions: DT40 wild type chicken cells viability, CellTiter-Glo, 40 h; series mostly up to 68.4 µM
Results filed as inconclusive are left out. Activity calls are given as the source filed them. The call rests on the fitted dose curve; in most records, active means well fitted cell-killing curve with a large enough effect in the repeat runs; inconclusive means weak or mixed curves, or effect the other way; inactive means no such curve, though single readings can be large or run the other way.
Outcomes: active, inactive

molecule="C=CC1CC=CCC1 (centres undefined)" classname=inactive
molecule=O=C1c2ccccc2C(=O)c2ccccc21 classname=inactive
molecule=C=C(C)CN(CC)c1c([N+](=O)[O-])cc(C(F)(F)F)cc1[N+](=O)[O-] classname=inactive
molecule="CCC(C)n1c(=O)[nH]c(C)c(Br)c1=O (centres undefined)" classname=inactive
molecule="C[C@@H]1CN(C2CCC(C#N)(c3ccc(F)cc3)CC2)CC[C@]1(C(=O)O)c1ccccc1 (some centres undefined)" classname=inactive
molecule=CN1C(=S)CN=C(c2ccccc2)c2cc(Cl)ccc21 classname=active
molecule="CCN(CC)C(C)C(=O)c1ccccc1 (centres undefined)" classname=inactive
molecule=N#CCCC#N classname=inactive
molecule=CCC#N classname=inactive
molecule="Cc1coc2c1CCC(C)C2 (centres undefined)" classname=inactive
molecule=[O]=[Cd] classname=inactive
molecule=CC(C)COP(=O)(OCC(C)C)OCC(C)C classname=inactive
molecule="CCC(Cl)[N+](=O)[O-] (centres undefined)" classname=inactive
molecule=[Cl][Sn]([Cl])([Cl])[Cl] classname=inactive

* * *

# assaySystem: Acetylcholinesterase (Homo sapiens)
# experiment: Acetylcholinesterase (AChE) small molecule antagonists: fluorescence cell-based qHTS assay (AID 1347398); further: nearly all actives have a fitted effect of over 50% in size
# studyConditions: SH-SY5Y cells; AChE activity; series mostly up to 115 µM
Results filed as inconclusive are left out. The source made the active and inactive calls. Calls come from the whole dose curve.
Possible outcomes: yes = active, no = inactive

compound=CC(N)=S classname=no
compound=CCSC(=O)N(CC)C1CCCCC1 classname=no
compound=NC(=O)c1cc([N+](=O)[O-])cc([N+](=O)[O-])c1 classname=no
compound=NC(=O)O classname=no
compound=[Cl][Sn]([Cl])([Cl])[Cl] classname=no
compound="CC(C)(C)NCC(O)c1cc(Cl)c(N)c(Cl)c1 (stereo not drawn)" classname=no
compound=CC(=O)Nc1cc([As](=O)(O)O)ccc1O classname=no
compound=Cc1cc(C)c(C(=O)P(=O)(C(=O)c2c(C)cc(C)cc2C)c2ccccc2)c(C)c1 classname=no
compound="CCCSP(=O)(OCC)Oc1ccc(Br)cc1Cl (stereo not drawn)" classname=yes
compound=Nc1cnn(-c2ccccc2)c(=O)c1Cl classname=no
compound="O=c1oc2ccccc2c(O)c1C1CCCc2ccccc21 (stereo not drawn)" classname=no
compound="OC(c1ccc(F)cc1)(c1cncnc1)c1ccccc1Cl (stereo not drawn)" classname=no
compound=CC(C)CC#N classname=no
compound=O=P(O)(Oc1ccccc1)Oc1ccccc1 classname=no
compound=O=C(Nc1ccccc1)N(Cc1ccc(Cl)cc1)C1CCCC1 classname=no
compound=C[N+](C)=CCl classname=no
compound=ClC(Cl)Br classname=no
compound=CCCCc1c(C)nc(NCC)[nH]c1=O classname=no
compound=COC(=O)c1ccccc1S(=O)(=O)NC(=O)Nc1nc(C)cc(C)n1 classname=no
compound=ClC(Cl)C(Cl)Cl classname=no
compound=c1cc[c]([Hg][c]2ccccc2)cc1 classname=no
compound=O=[N+]([O-])c1ccc2c3c(cccc13)CC2 classname=no
compound=CCCCOC(=O)[C@@H](C)Oc1ccc(Oc2ccc(C#N)cc2F)cc1 classname=no
compound=Cc1ncc(CNC(=O)N(CCCl)N=O)c(N)n1 classname=no
compound="CC(COc1ccc(Oc2ccccc2)cc1)Oc1ccccn1 (stereo not drawn)" classname=no
compound=C[C@]12CC[C@H]3[C@@H](CCC4=CC(=O)CC[C@@]43C)[C@@H]1CC[C@@H]2C(=O)O classname=no
compound=O=[N+]([O-])c1cc(Cl)c(Cl)c(Cl)c1 classname=no
compound=CCCCOC(=O)c1ccccc1N classname=no
compound=O=[N+]([O-])c1ccc(CBr)cc1 classname=no
compound=CCOP(=O)(OCC)OP(=O)(OCC)OCC classname=no
compound=CC1=C(C(=O)Nc2ccccc2)S(=O)(=O)CCO1 classname=no
compound=CN(N=O)C(N)=O classname=no
compound=COCC(=O)N(c1c(C)cccc1C)N1CCOC1=O classname=no
compound=Nc1cc2c3c(c1)C(c1ccccc1)=N[C@@H](NC(=O)c1cccnc1)C(=O)N3CC2 classname=no
compound=Cc1cnc[nH]1 classname=no
compound=CNC(=O)Oc1ccc(N(C)C)c(C)c1 classname=yes
compound=CC(C)CP(=S)(S)CC(C)C classname=no
compound=Cc1cccc(C#N)c1 classname=no
compound="CC1COC2(c3ccccc3Cl)c3cc(Cl)ccc3NC(=O)CN12 (stereo not drawn)" classname=no
compound="O=C1OC(CCN2CCCCC2)OC1(c1ccccc1)c1ccccc1 (stereo not drawn)" classname=no
compound="CC(=O)CC(c1ccc(Cl)cc1)c1c(O)c2ccccc2oc1=O (stereo not drawn)" classname=no
compound="COC(=O)C(c1ccccc1)C1CCCCN1 (stereo not drawn)" classname=no
compound=CNNC classname=no
compound=COC(=O)COc1ccc(Cl)cc1Cl classname=no
compound=CN1C(=S)CN=C(c2ccccc2)c2cc(Cl)ccc21 classname=no
compound=OCCSCSCCO classname=no
compound="CC(Oc1ccc(Oc2ncc(C(F)(F)F)cc2Cl)cc1)C(=O)O (stereo not drawn)" classname=no
compound=CCOC(=O)C1(c2ccccc2)CCN(CCc2ccc(N)cc2)CC1 classname=no
compound=CC(=O)CCc1ccc2c(c1)OCO2 classname=no
compound=O=NN1CCCCC1 classname=no
compound=CCC#N classname=no
compound="NC1=NC(=O)C(c2ccccc2)O1 (stereo not drawn)" classname=no
compound=Nc1n[nH]c(N)n1 classname=no
compound=O=C(CCN1CC1)OCC(CO)(COC(=O)CCN1CC1)COC(=O)CCN1CC1 classname=no
compound=N#CCBr classname=no
compound="Cc1coc2c1CCC(C)C2 (stereo not drawn)" classname=no
compound=CN1CCN(C(=O)O[C@H]2c3nccnc3C(=O)N2c2ccc(Cl)cn2)CC1 classname=no
compound=CCCCCCI classname=no

This collection of values is drawn from PubChem BioAssay (Tox21).
